assay: Pharmacokinetics after i.v. and oral administration; type: in vivo, Wistar rats; conditions: Wistar, rat, plasma, iv, 5.97 mg/kg
Parameter: AUC
Lab note: write values as number then unit, every time.

For the molecule N[C@@H](Cc1ccc(O)c(O)c1)C(=O)O [l-dopa, reference compound] , what AUC is on record?
7660 ng·h/mL

* * *

assay: Pharmacokinetics after i.v. and oral administration; type: in vivo, Wistar rats; settings: Wistar, rat, plasma, po, 5.97 mg/kg
Parameter: half-life (h)
Express your answer in h, writing the number without its unit.

Query (compound): N[C@@H](Cc1ccc(O)c(O)c1)C(=O)O [l-dopa, reference compound] ; field requested: half-life
3.08
